meta.source: the NIST ThermoML archive (doi:10.1021/je300938w)

Hi there, I'd appreciate the recorded mass density for every entry that follows.
- assay.procedure: wn = mass fraction of the nth substance listed
- run.conditions: 313.15 K; 101 kPa; Liquid; Vibrating tube method; w1 = 0.2
One number for each entry, in kg/m3.

Would you please look over these solved cases?
>  <compound>
CC(O)CN (centres undefined) [1-amino-2-propanol] + O

>  <measurement.unit>
kg/m3

>  <recorded.result>
994.489

$$$$
>  <compound>
CC(O)CN(CC(C)O)CC(C)O (centres undefined) [triisopropanolamine] + O

>  <measurement.unit>
kg/m3

>  <recorded.result>
1004.97

$$$$
>  <compound>
CC(O)CNCC(C)O (centres undefined) [N-(2-hydroxypropyl)-2-hydroxy-1-propanamine] + O

>  <measurement.unit>
kg/m3

>  <recorded.result>
1004.14

$$$$

Entry OCCNCCO [diethanolamine] + O needs its mass density filled in; supply it.
1015.05

---

- assay.procedure: refractive index (Na D-line) (dimensionless); wn = mass fraction of the nth substance listed
- run.conditions: 338.15 K; 101 kPa; Liquid; Standard Abbe refractometry; w1 = 0.25
reported.endpoint: refractive index
Numbers only.

>  <molecule>
CC(O)CN (centres undefined) [1-amino-2-propanol] + O

>  <refractive index>
1.35753

$$$$

Please look at the items below and tell me refractive index for each one, in order.
1. CC(O)CNCC(C)O (centres undefined) [N-(2-hydroxypropyl)-2-hydroxy-1-propanamine] + O
2. OCCNCCO [diethanolamine] + O
3. CC(O)CN(CC(C)O)CC(C)O (centres undefined) [triisopropanolamine] + O

[1.36051, 1.36244, 1.36154]

---

- assay.procedure: wn = mass fraction of the nth substance listed
- run.conditions: 343.15 K; 101 kPa; Liquid; Vibrating tube method; w1 = 0.05
Hi there, I'd appreciate the recorded mass density for every entry that follows.
Answers are plain numbers, in kg/m3.

Would you please look over these solved cases?
>  <compound>
CC(O)CN (centres undefined) [1-amino-2-propanol] + O

>  <mass density / kg/m3>
978.537

$$$$
>  <compound>
CC(O)CNCC(C)O (centres undefined) [N-(2-hydroxypropyl)-2-hydroxy-1-propanamine] + O

>  <mass density / kg/m3>
980.387

$$$$
>  <compound>
OCCNCCO [diethanolamine] + O

>  <mass density / kg/m3>
983.659

$$$$

Okay, next one:
Entry CC(O)CN(CC(C)O)CC(C)O (centres undefined) [triisopropanolamine] + O needs its mass density filled in; supply it.
980.297

---

Hi there, I'd appreciate the recorded viscosity for every entry that follows.
- assay.procedure: wn = mass fraction of the nth substance listed
- run.conditions: 343.15 K; 101 kPa; Liquid; Concentric cylinders viscometry; w1 = 0.15
Numbers only, in mPa·s.

Would you please look over these solved cases?
>  <molecule>
CC(O)CNCC(C)O (centres undefined) [N-(2-hydroxypropyl)-2-hydroxy-1-propanamine] + O

>  <viscosity (mPa·s)>
0.725

$$$$
>  <molecule>
CC(O)CN (centres undefined) [1-amino-2-propanol] + O

>  <viscosity (mPa·s)>
0.6478

$$$$
>  <molecule>
CC(O)CN(CC(C)O)CC(C)O (centres undefined) [triisopropanolamine] + O

>  <viscosity (mPa·s)>
0.6596

$$$$

Okay, next one:
Entry OCCNCCO [diethanolamine] + O needs its viscosity filled in; supply it.
0.6185
